What phosphorylation enrichment was measured for each of the following?
# system.name: FGFR1 (UniProt P11362)
# Sequence (P11362 whole entry, looked up): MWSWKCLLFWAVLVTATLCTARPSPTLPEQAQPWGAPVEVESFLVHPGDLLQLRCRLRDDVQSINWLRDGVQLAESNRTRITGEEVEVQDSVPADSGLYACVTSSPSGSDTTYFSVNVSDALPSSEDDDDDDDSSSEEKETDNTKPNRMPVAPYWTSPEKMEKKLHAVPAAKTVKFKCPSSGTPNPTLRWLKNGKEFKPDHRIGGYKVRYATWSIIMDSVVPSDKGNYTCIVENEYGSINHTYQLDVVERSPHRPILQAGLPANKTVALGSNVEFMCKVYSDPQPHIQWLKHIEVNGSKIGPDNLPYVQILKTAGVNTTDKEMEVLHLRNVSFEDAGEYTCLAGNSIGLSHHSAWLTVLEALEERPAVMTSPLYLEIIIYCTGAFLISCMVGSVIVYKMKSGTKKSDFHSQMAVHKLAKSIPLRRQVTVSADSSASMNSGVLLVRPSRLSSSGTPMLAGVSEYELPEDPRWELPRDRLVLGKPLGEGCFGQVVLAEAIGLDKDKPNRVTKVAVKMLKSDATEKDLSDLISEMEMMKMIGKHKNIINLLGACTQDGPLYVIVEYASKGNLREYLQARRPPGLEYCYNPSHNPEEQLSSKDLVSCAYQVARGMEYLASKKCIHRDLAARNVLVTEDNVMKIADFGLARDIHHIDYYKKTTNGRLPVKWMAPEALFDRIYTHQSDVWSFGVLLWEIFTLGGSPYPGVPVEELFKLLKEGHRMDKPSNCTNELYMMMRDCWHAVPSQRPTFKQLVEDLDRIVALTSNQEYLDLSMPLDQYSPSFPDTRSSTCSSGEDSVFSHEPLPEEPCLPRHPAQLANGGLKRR
# test.summary: phosphorylation enrichment, bacterial display (enrichment ratio); higher = better substrate or ligand; peptides without Tyr show the background;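 note: 11-residue human phosphosite peptides and single-mutation variants displayed on the E. coli surface, counted by deep sequencing, each peptide's frequency after selection divided by its frequency in the unselected input library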;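 note: frequency after pTyr selection over input frequency; kinase dosed for 20-30% of maximal phosphorylation in three min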
Answers are plain numbers.

residue.codes	phosphorylation enrichment
AKKKMYSCKTK [AGXT_Y231_R233C]	0.588
SLIDGYFRLTA [JAK2_Y372_YF]	0.605
QITQVYGFYHE [PPP2CA_Y127_D131H]	0.614

In the following, a different sequence is considered.
FGFR1 (UniProt P11362) phosphorylation enrichment of KFFRVYQGQQP [MUTYH_Y494_V490F] is 0.592

###

For each entry below, report its phosphorylation enrichment value.
# system.name: EPHB2 (UniProt P29323)
# Sequence (P29323 whole entry, looked up): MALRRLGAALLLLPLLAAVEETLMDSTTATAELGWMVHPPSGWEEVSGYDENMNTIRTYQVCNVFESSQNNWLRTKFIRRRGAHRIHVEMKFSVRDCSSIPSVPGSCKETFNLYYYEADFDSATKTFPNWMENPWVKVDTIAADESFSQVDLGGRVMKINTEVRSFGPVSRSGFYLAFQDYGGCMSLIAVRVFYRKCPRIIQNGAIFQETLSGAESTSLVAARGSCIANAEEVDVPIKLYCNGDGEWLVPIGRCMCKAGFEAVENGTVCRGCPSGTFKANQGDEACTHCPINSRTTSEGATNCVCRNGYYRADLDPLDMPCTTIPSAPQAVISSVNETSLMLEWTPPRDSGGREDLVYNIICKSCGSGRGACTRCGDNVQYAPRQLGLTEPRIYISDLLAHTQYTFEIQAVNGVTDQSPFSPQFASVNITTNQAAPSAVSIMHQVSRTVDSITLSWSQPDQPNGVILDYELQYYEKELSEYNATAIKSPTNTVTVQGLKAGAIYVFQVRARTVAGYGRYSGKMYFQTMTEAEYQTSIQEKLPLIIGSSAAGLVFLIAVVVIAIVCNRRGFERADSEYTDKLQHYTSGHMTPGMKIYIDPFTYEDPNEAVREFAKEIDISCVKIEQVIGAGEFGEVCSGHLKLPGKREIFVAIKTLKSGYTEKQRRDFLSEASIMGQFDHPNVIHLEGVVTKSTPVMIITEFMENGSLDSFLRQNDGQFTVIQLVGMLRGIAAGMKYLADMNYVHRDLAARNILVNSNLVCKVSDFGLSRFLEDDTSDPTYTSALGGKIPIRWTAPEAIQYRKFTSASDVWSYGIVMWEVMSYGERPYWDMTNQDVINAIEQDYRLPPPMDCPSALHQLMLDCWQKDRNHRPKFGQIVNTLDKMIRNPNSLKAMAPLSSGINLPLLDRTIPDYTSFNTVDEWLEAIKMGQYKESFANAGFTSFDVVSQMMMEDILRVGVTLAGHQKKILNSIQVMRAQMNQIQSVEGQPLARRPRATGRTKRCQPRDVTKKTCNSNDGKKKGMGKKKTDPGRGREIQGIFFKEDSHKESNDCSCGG
# test.summary: phosphorylation enrichment, bacterial display (enrichment ratio); higher = better substrate or ligand; peptides without Tyr show the background
Give bare numbers.

residue.codes	phosphorylation enrichment
ATFRGYDSDNP [MMUT_Y146_H143Y_YF]	0.513

For each listed entry, give its phosphorylation enrichment.
1. GCKNRYDEDKP [THAP1_Y14_K16E]
2. VPLATYMRIYK [RPL21_Y30]
3. DVQNEYDSNHC [ZFYVE16_Y36_A35E]

Response:
[0.497, 0.492, 0.513]

###

# system.name: Hck (UniProt P08631)
# Sequence (P08631 whole entry, looked up): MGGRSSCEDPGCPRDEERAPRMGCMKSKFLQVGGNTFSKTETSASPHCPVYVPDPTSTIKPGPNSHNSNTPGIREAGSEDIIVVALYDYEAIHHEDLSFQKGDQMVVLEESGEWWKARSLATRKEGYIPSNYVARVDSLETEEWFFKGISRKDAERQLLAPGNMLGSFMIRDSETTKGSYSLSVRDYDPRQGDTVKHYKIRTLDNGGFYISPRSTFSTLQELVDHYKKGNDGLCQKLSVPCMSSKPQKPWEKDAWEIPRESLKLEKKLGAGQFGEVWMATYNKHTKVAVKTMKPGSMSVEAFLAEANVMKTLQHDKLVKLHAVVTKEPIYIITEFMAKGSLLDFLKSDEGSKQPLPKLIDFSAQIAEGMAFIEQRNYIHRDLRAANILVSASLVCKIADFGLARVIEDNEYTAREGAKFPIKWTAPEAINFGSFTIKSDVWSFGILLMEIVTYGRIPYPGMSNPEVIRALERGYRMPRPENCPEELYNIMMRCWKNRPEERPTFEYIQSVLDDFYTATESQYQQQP
# test.summary: phosphorylation enrichment, bacterial display (enrichment ratio); higher = better substrate or ligand; peptides without Tyr show the background
readout.name: phosphorylation enrichment

Known results for sequences:
residue.codes	phosphorylation enrichment
FSLPAYMDRRD [COX4I1_Y38]	0.492
EQAERYDDMAA [YWHAG_Y20]	0.501
KRFAFYRDSPR [FOXE3_Y108_E103K]	0.387
ETLLYYGYRRS [POR_Y564_C566Y]	14.6
GMKIVYVYVKK [DNAI2_Y5_E2K]	0.459
LNSFIYSLRNR [OR1A1_Y288_P285S]	3.1
RGGWVYVLHPT [TRMT61A_Y67]	0.909
FVSAAYVKKLD [SPTAN1_Y1020_P1017S]	0.374
IHFAIYFLKFS [ARMC9_Y107_L108F_YF]	0.561
VHSGTYQVMVR [MYBPC3_Y1043_T1046M]	1.98

Hi there! I need phosphorylation enrichment for each item below, if you can.
1. IGSHAYGDQFR [IDH1_Y135_R132S_YF]
2. HSFQCYGRNEA [ENTPD3_Y262]

Response:
0.498
0.797

Give one value of phosphorylation enrichment per listed sequence.
1. ALEKTYNTFRS [B4GALNT2_Y538_YF]
2. YVPSFYHAFSG [ACTN4_Y265_S262P]
3. TVLEHYRRTHC [MYBPC3_Y1119]
4. SLHPGYNFRYA [P2RX7_Y291_Y288H]
5. QNWELYSEGLG [CNKSR1_Y665_R662W]

Response:
0.704
1.94
0.5
0.492
4.32

Parameters: items (list). Returns: phosphorylation enrichment for each item.
1. LSIQCYLRASD [HMGCS2_Y262_L266S]
2. TESALYGCTVV [KIAA1804_Y724_L729V]

Response:
1. 2.46
2. 4.37

Respectfully, I request phosphorylation enrichment for each entry included below.
1. PQAVRYIYTID [DCX_Y103_G100A]
2. AIYWRYSKFFD [SH3PXD2B_Y45_R43W]
3. AEKPKYQINNI [TJP1_Y1602]

Response:
3.66
0.886
0.366

These entries and their values trace back to the supplement of paper PMC10065799.
